# experimental_system: Ornithine decarboxylase (Bos taurus)
# assay_overview: Inhibition of bull prostate ornithine decarboxylase
quantity: pKi
Give bare numbers, as −log10 of the molar value.

Inquiry: Find the recorded pKi belonging to NC/C=C/C(N)C(=O)O (racemic) and report it.
Reply text: 2.36

----------
Hi there, I'd appreciate the recorded pKd for every entry that follows.
# assay_overview: Binding affinity to pyridoxal-phosphate
Answers are plain numbers, as −log10 of the molar value.

Worked cases, pKd given:
>  <molecule>
CC(N)(CCCNCCCN)C(=O)O (racemic; 3)

>  <pKd>
3.05

$$$$
>  <molecule>
C[C@](N)(CCCN)C(=O)O

>  <pKd>
2.63

$$$$
>  <molecule>
NCCCCNCCCN

>  <pKd>
3.15

$$$$

List pKd for every entry below, keeping the order given.
1. CNCCCC(C)(N)C(=O)O (racemic)
2. NCCC[C@H](N)C(=O)O
3. NCCCCN

Reply text:
1. 2.27
2. 2.90
3. 3.10

----------
Consider the following compounds; for each one, report its Ki.
# experimental_system: Ornithine decarboxylase (Rattus norvegicus)
# assay_overview: Competitive inhibition of rat liver ornithine decarboxylase using DL-[1-14C]ornithine as substrate after 1 hr by dixon plot analysis
Numbers only, in µM.

>  <compound>
N[C@H]1CC[C@](N)(C(=O)O)CC1

>  <experimental_system>
Ornithine decarboxylase (Rattus norvegicus)

>  <measured_value>
70

$$$$
>  <compound>
CNCCCC(C)(N)C(=O)O (racemic)

>  <experimental_system>
Ornithine decarboxylase (Rattus norvegicus)

>  <measured_value>
500

$$$$
>  <compound>
CC(N)(CCCN)C(=O)O (racemic)

>  <experimental_system>
Ornithine decarboxylase (Rattus norvegicus)

>  <measured_value>
40

$$$$

Dear colleague, could you please provide Ki for the compounds listed below?
1. C[C@@](N)(CCCN)C(=O)O
2. C[C@](N)(CCCN)C(=O)O
3. NCCCC(N)c1nnn[nH]1 (stereo unspecified)

Reply text:
1. 1300
2. 19
3. 120

----------
# experimental_system: Ornithine decarboxylase (Rattus norvegicus, UniProt P09057)
# Sequence (P09057 whole entry): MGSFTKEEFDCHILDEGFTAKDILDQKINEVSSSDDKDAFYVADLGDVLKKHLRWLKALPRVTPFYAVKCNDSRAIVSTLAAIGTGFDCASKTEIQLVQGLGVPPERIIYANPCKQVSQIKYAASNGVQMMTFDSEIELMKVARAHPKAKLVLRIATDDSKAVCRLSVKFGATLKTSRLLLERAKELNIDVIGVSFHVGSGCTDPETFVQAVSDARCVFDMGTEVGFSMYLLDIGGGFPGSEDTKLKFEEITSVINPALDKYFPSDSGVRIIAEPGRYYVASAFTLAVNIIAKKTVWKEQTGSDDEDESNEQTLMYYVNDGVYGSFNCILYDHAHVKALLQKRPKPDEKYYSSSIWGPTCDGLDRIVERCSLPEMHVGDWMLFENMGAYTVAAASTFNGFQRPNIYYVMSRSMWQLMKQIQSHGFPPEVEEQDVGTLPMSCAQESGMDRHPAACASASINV
# assay_overview: Competitive inhibition of Sprague-Dawley rat prostate ornithine decarboxylase using DL-[1-14C]ornithine as substrate by liquid scintillation counting analysis
# Set-up: species or system Prostate gland
quantity: Ki (mM)
Numbers only, in mM.

Inquiry: What Ki value was documented for this molecule, NCCCCNCCCN ?
Reply text: 2.7
